Cited source: patent US7094429B2

test: Conversion process: active dissolved in supernatant of centrifuged MAS/tannic acid conversion samples; settings: in-situ tannate conversion, supernatant after 20 min mixing, centrifuged at 6500 rpm
Hi there, I'd appreciate the recorded Assay (% Dissolved) 20 mins for every entry that follows.
Report the value in % with no unit label.

### Prompt Note Assay (% Dissolved) 20 mins for the molecule shown: CN(C)CCC(c1ccc(Cl)cc1)c1ccccn1 (stereo not shown) [Chlorpheniramine]
### Response 0.13

### Prompt Note Assay (% Dissolved) 20 mins for the molecule shown: CCN(CC)CCOCCOC(=O)C1(c2ccccc2)CCCC1 [Carbetapentane]
### Response 0.08

### Prompt Note Assay (% Dissolved) 20 mins for the molecule shown: COc1ccc(CN(CCN(C)C)c2ccccn2)cc1 [Pyrilamine]
### Response 0.10

### Prompt Note Assay (% Dissolved) 20 mins for the molecule shown: CNC[C@H](O)c1cccc(O)c1 [Phenylephrine]
### Response 47.6
